# experimental target: Cytochrome P450 2D6 (Homo sapiens, UniProt P10635);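 further: CYP2D6 member of a cytochrome P450 panel assay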
# Sequence (P10635 whole entry): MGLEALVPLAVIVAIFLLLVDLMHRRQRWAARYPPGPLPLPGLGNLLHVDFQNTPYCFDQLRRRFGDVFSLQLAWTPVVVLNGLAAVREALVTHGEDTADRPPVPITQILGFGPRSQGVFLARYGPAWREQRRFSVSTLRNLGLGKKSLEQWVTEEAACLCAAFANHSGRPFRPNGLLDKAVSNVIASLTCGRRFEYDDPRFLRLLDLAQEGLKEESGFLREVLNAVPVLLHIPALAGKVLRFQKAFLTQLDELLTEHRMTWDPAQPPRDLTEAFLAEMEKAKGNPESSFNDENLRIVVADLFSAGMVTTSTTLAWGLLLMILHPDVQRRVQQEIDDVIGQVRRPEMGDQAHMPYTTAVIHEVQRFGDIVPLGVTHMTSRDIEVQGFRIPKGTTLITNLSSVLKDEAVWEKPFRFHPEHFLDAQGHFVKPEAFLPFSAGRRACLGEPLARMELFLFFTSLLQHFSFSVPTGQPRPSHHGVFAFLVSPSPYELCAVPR
endpoint label: AC50

The following compounds have reported results that may help.
c1cncc(-c2cncnc2NCc2cccs2)c1: 39.8 µM (inconclusive)
O=C(Nc1cccc(NC(=O)c2ccc(-c3cccc(Br)c3)o2)c1)c1ccco1: 17.8 µM (inconclusive)
COc1ccc(C2c3c(ncn(CCN4CCOCC4)c3=N)Oc3ccc4ccccc4c32)cc1OC (stereo not drawn): 15.8 µM (inconclusive)
Cc1ccc(-c2ccc(=O)n(CC(=O)NCc3ccco3)n2)cc1: 22.4 µM (inconclusive)
CCOc1ccc(S(=O)(=O)NCc2ccc(F)cc2)c2cccnc12: 31.6 µM (inconclusive)

Task item: Hello, please tell me recorded AC50 for this one: Cc1cc(OC(=O)CCCNC(=O)OC(C)(C)C)c2c3c(c(=O)oc2c1)CCC3
Reply: 15.8 µM (inconclusive)

Task item: Hello, please tell me recorded AC50 for this one: Fc1ccccc1OCCCCSc1ncccn1
Reply: 17.8 µM (inconclusive)

Task item: Hello, please tell me recorded AC50 for this one: O=C(NCc1ccccc1)c1cccc(COc2cccc(Cl)c2)c1
Reply: 31.6 µM (inconclusive)

Task item: Hello, please tell me recorded AC50 for this one: COC(=O)CSc1nnc(C)n1-c1cccc(OC)c1
Reply: 3.16 µM (inconclusive)

Task item: Hello, please tell me recorded AC50 for this one: O=S(=O)(c1ccccc1)N1CCC2(CCCN(c3ccccc3)C2)CC1
Reply: 10 µM (inconclusive)

Task item: Hello, please tell me recorded AC50 for this one: CCCn1c(N)c(C(=O)CSc2nc(C)cs2)c(=O)n(C)c1=O
Reply: 20 µM (inconclusive)

Task item: Hello, please tell me recorded AC50 for this one: COc1cccc(Cn2c(=O)cnc3cnc(Oc4cccc(Cl)c4)nc32)c1
Reply: 39.8 µM (inconclusive)

Task item: Hello, please tell me recorded AC50 for this one: O=C(O)CC[P+](c1ccccc1)(c1ccccc1)c1ccccc1
Reply: 3.98 µM (inconclusive)

###

# experimental target: Streptokinase A (Streptococcus pyogenes serotype M1, UniProt P10520)
# Sequence (P10520 whole entry): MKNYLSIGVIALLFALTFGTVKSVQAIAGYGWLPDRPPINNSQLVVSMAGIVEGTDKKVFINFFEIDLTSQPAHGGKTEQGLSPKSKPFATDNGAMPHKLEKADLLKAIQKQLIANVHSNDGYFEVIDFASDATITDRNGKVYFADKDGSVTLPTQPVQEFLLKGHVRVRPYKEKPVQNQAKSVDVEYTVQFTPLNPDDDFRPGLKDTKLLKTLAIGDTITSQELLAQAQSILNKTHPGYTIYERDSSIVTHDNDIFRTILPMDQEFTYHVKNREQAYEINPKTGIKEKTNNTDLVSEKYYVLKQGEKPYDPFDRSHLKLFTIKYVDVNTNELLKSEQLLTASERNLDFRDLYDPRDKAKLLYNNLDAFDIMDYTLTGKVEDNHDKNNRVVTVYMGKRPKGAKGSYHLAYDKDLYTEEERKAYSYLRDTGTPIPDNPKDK
# assay method text: viability-normalized secreted streptokinase activity reduction – plasminogen activation absorbance, OD405, dose response (AID 1914);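 further: secreted streptokinase activity via plasminogen activation per viability signal from cell pellet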
# Type: functional, Streptococcus pyogenes M1 GAS
The source made the active and inactive calls.
This listing pairs compounds with measured EC50.

The following compounds have reported results that may help.
CCCCCCCCCCCCn1ccc(=N)cc1: 17.6 µM (active)
Cc1cc(-c2c(C)[nH]n(-c3ccc(Cl)cc3)c2=O)n[nH]1: > 150 µM (not active)
CC(C)(C)OC(=O)[C@H](Cc1ccccc1)NC(=O)c1[nH]cnc1C(=O)Nc1ccc(Cl)cc1: 21.5 µM (active)
CC(=O)O[C@H]1C[C@@]2(C)[C@@H](C[C@@H](O)[C@H]3[C@@]4(C)CC[C@@H](O)[C@@H](C)C4CC[C@@]32C)/C1=C(\CCC=C(C)C)C(=O)O (some centres not stated): 1.78 µM (active)
Cc1ccc(C(=O)Nc2nc(-c3ccccn3)cs2)o1: > 150 µM (not active)
C[C@]12CC[C@@H]3c4ccc(OC(=O)c5ccccc5)cc4CC[C@H]3[C@@H]1CC[C@@H]2O [ESTRADIOL BENZOATE]: 2.43 µM (active)
Nc1ccccc1Sc1nc2ccccc2[nH]1: > 150 µM (not active)
Cc1cc(=O)oc2cc(OCC(=O)N3CCN(C(=O)C4COc5ccccc5O4)CC3)ccc12 (configuration not stated): > 50 µM (not active)
c1ccc(-c2cc(-c3ccncc3)nc3ccc4ccccc4c23)cc1: > 150 µM (not active)
O=[N+]([O-])c1c(NCCO)cc(Sc2nc3ccccc3s2)c2nonc12: > 150 µM (not active)

Task item: Hello, please tell me recorded EC50 for this one: O=C1C(Cl)=C(Nc2ccc3cn[nH]c3c2)C(=O)c2ccccc21
Reply: 6.22 µM (active)

Task item: Hello, please tell me recorded EC50 for this one: O=C(N/N=C/c1sc2ccccc2c1O)c1cccc2ccccc12
Reply: > 150 µM (not active)
